Target: recombinant human RXR receptor (Homo sapiens)
Sequence (P19793 whole entry): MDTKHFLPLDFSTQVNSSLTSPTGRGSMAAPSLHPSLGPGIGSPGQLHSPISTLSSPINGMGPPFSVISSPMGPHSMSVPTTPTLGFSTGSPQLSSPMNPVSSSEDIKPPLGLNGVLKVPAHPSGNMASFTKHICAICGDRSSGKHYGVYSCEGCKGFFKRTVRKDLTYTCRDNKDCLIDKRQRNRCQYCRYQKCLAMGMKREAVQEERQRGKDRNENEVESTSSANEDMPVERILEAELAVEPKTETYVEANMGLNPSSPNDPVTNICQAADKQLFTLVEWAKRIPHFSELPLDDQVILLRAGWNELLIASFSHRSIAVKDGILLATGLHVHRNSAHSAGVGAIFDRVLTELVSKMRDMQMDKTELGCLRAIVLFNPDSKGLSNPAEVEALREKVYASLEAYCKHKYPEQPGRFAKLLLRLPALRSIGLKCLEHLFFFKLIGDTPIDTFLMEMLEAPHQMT
Sequence (P19793 whole entry): as above
Assay: RXR mammalian two-hybrid assay
Conditions: read-out: EC50 value; transfected HCT-116 cells; full dose-response curves 10^−10 to 10^−5 M; ± S.D.

INPUT SMILES	EC50 (nM)
Cc1cc2c(cc1C(=O)c1cc(F)c(C(=O)O)c(F)c1)C(C)(C)CCC2(C)C	550
